target: Aromatase (Homo sapiens, UniProt P11511)
Sequence (P11511 whole entry): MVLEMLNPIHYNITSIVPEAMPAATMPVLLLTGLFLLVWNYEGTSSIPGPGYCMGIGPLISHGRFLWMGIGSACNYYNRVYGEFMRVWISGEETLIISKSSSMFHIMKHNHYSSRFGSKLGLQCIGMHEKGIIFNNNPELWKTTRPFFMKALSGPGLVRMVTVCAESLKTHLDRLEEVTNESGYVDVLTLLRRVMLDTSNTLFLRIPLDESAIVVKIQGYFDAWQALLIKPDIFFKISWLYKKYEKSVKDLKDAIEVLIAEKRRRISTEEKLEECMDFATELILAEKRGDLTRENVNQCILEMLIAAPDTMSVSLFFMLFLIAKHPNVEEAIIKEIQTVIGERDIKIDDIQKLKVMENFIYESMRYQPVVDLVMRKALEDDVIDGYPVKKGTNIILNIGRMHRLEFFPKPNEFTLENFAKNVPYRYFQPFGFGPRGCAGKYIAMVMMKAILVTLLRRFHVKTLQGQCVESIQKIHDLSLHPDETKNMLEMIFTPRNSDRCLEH
Given measured inhibition at 0.1 µM, output 1 (yes) if it is greater than or equal to 60% and 0 (no) if not.

{"Molecule": "CC12CCC3C(C1CCC2=O)[C@H](Cc1ccccc1)CC1=CC(=O)CCC13C (stereo partly specified)", "Class": "1 (yes)"}
{"Molecule": "C[C@]12CCC(=O)C=C1C[C@H](CCc1ccccc1)[C@@H]1[C@@H]2CC[C@]2(C)C(=O)CC[C@@H]12", "Class": "0 (no)"}
{"Molecule": "C[C@]12CC[C@H]3[C@@H]([C@H](CCc4ccccc4)CC4=CC(=O)CC[C@@]43C)[C@@H]1CC[C@@H]2O", "Class": "0 (no)"}
{"Molecule": "CC12CCC3C(C1CCC2=O)[C@H](CCc1ccccc1)CC1=CC(=O)CCC13C (stereo partly specified)", "Class": "1 (yes)"}
{"Molecule": "C[C@]12CCC(=O)C=C1C[C@H](Cc1ccccc1)[C@@H]1[C@@H]2CC[C@]2(C)C(=O)CC[C@@H]12", "Class": "0 (no)"}
